Experiment: protein stability index of a GFP-peptide fusion (yeast GPS) (PSI 1-4); higher = more stable; sorted into four equal gates, so the index is relative within each strain
Details: doa10∆
Parameter: protein stability index
I only need the number, thanks.

// protein stability index lookup, key: GASTGNANTGFSFGGTQ [YGL172W/NUP49]
2.06

Suppose we examine the sequence LSGSISERIVDCIIRLP [FAS1] ; what protein stability index value has been reported?
1.35

For the sequence ALSYAALILADSEIEIS [RPP1A] , what protein stability index is on record?
1.8

What measured protein stability index goes with SSSSDIIVPDLIELKSD [YML103C/NUP188] ?
2.71

Query (sequence): DLSRNGRNGSNGNDESS [NUT1] ; field requested: protein stability index
3.19

If you can, please state the reported protein stability index value of PAKIVNFEKPKNSSQLL [RPN5] .
3.06

Could you share which protein stability index value was measured for DSFKYEPLAPGNDNLIK [YLR335W/NUP2] ?
2.61

Please report the recorded protein stability index for SASVRALIENWAADSVS [FAS1] .
2.46

Field request: protein stability index | item: QSSLDVAGLEDKFRKAC [SIR3]
3.62

Entry KNLIQLISLKLLTFEVT [SRB8] has what protein stability index?
1.28

I have this sequence here, MSNKVKTKAMVPPINCI [SME1] , and I need its recorded protein stability index.
2.42

protein stability index for SAAAAGNRNSSSVFLPS [BRR2] ?
3.13

Returns the measured protein stability index for the input sequence. Input: LEEIRGNPLSIGTLEEI [RPT2]
3.29

Can you share its protein stability index? I mean this sequence: QIKTLPEQYSDILLNER [AAR2]
2.96

Would you mind telling me what protein stability index value was observed for QHTSFQEAVNSLKGYKI [CSI1] ?
3.15

Given the sequence DYLTLNKVVVNLNDAGL [RPN2] , what is its reported protein stability index?
2.73

Field request: protein stability index | item: AIYNNPTRIRTKSSKEF [RRI2]
1.41

I'd like to know its protein stability index. The sequence in question is LILSGDTTANNGKVQYF [YJL039C/NUP192]
2.89

# lookup: protein stability index of WIVVLPWFWLLPLWHLL [POP1]
2.4

Quick one: protein stability index of RPHQSRESLIMLLEEQL [MED7] ?
2

Item VEEDHTLGNALRYVIMK [RPC19] has what recorded protein stability index?
3.08

Recorded protein stability index of GINPNTFRIFHNHDTGC [YDL088C/ASM4] , please.
1.83

For the sequence shown here, ISLHENKLSGILADEMG [ISW2] , give the reported protein stability index.
2.81

Returns the measured protein stability index for the input sequence. Input: CRNDAVNWLAYTYLYVR [BRR2]
3.25

Which protein stability index is listed for SLLLSSVKESTGMSSMS [SRB4] ?
1.96

Fill blank: measured protein stability index of the sequence LASRNKWDDLNEQLTLL [RPN5] is ____.
2.99

I have this sequence here, HSLSQAIKWDGSSGGVI [PRE3] , and I need its recorded protein stability index.
3.69

What measured protein stability index goes with QNVNVPSAFNFTGNNST [YOR098C/NUP1] ?
2.56

Could you tell me which protein stability index is on file for VIVTDPRLDAQAIKEAS [RPS0B] ?
3.03

// protein stability index lookup, key: SARNYDKFKLNENDLKT [SMC1]
2.55
